Type: in vivo, humans
recordedConditions: both, human, plasma, po, 300 mg
outcomeMeasure: tmax (h)
One number for each entry, in h.

// fetch tmax given entry COC(=O)[C@H](c1ccccc1Cl)N1CCc2sccc2C1
1.5

* * *

recordedConditions: both, human, plasma, oral, AUC0–∞, prasugrel phase; geometric mean (geometric CV)
outcomeMeasure: AUC(0-inf)
Field: value (include unit after the number)

// fetch AUC(0-inf) given entry CC(C)(O)c1ccccc1CC[C@@H](SCC1(CC(=O)O)CC1)c1cccc(/C=C/c2ccc3ccc(Cl)cc3n2)c1
2800 ng·h/mL

* * *

recordedConditions: both, human, plasma, oral, 10 mg, tmax, placebo phase; median (range)
outcomeMeasure: tmax (h)
One number for each entry, in h.

// fetch tmax given entry CC(C)(O)c1ccccc1CC[C@@H](SCC1(CC(=O)O)CC1)c1cccc(/C=C/c2ccc3ccc(Cl)cc3n2)c1
3.5
